# test.method.notes: Antioxidant activity assessed as DPPH free radical scavenging activity at 100 uM after 60 mins by spectrophotometry
# Format: physicochemical
# condition.context: 1 h
Response key: rule met means Imax >= 50%; rule not met means Imax < 50%.

# molecule, category.label
rows = [
    ("COc1ccc(Nc2nnc(CSCc3cc(C(C)(C)C)c(O)c(C(C)(C)C)c3)s2)cc1", "rule met"),
    ("COc1ccccc1NC(=S)NNC(=O)CSCc1cc(C(C)(C)C)c(O)c(C(C)(C)C)c1", "rule met"),
    ("Cc1cc(C(C)(C)C)c(O)c(C(C)(C)C)c1 [BUTYLATED HYDROXYTOLUENE]", "rule not met"),
    ("COc1ccccc1Nc1nnc(CSCc2cc(C(C)(C)C)c(O)c(C(C)(C)C)c2)s1", "rule met"),
    ("COc1ccccc1-n1c(S)nnc1CSCc1cc(C(C)(C)C)c(O)c(C(C)(C)C)c1", "rule not met"),
    ("COc1ccc(NC(=S)NNC(=O)CSCc2cc(C(C)(C)C)c(O)c(C(C)(C)C)c2)cc1", "rule met"),
    ("O=C1O[C@H]([C@@H](O)CO)C(O)=C1O", "rule met"),
    ("COc1ccc(-n2c(S)nnc2CSCc2cc(C(C)(C)C)c(O)c(C(C)(C)C)c2)cc1", "rule met"),
]
